Biological target: MafG homodimer (UniProt O15525)
Sequence (O15525 whole entry): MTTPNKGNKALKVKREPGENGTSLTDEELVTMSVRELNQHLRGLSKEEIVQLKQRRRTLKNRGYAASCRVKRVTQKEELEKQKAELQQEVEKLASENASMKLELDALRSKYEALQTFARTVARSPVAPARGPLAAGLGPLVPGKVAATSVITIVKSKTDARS
Assay: SPR
Conditions: 5' thiol on anchor strand (immobilized); 20 mM Hepes, 200 mM NaCl, 4 mM MgCl2, 1 mM EDTA, BSA, pH 7.9; SPR imaging
MEASURED PARAMETER: Kd (nM)
Give the quantity in nM, number only.

Given TTTTTTTTTTTTTTTCGGAATTGCTGACTCAGCATTACTC (double strand) [MARE 25] , state its recorded Kd.
2.5

---

Target: MafG homodimer (UniProt O15525)
Test: EMSA
Settings: 5' thiol on anchor strand (immobilized) [variable site 22-34 (TGCTGATTCAGCC); 5' thiol linker at 1 left out]; gel mobility shift assay comparison; probe details not given
MEASURED PARAMETER: Kd (µM)
State the answer as a number, implicitly in µM.

Request: Kd, test system MafG homodimer (UniProt O15525), entry TTTTTTTTTTTTTTTCGGAATTGCTGATTCAGCCTTACTC (double strand) [hOPSIN]
0.252

---

Biological target: MafG homodimer (UniProt O15525)
Assay: SPR
Conditions: 5' thiol on anchor strand (immobilized) [variable site 22-34 (TGCTGATTCAGCC); 5' thiol linker at 1 left out]; 20 mM Hepes, 200 mM NaCl, 4 mM MgCl2, 1 mM EDTA, BSA, pH 7.9; listing SEQ 7 has 14 nt, Table 2 prints 13 nt
MEASURED PARAMETER: pKd
A value of pKd is the negative decimal logarithm of a concentration given in moles per litre.

Hello, I am looking for reported pKd with MafG homodimer (UniProt O15525) for TTTTTTTTTTTTTTTCGGAATTGCTGATTCAGCCTTACTC (double strand) [hOPSIN] . Could you help?
8.12
